Sourced from ChEMBL document CHEMBL4765340

So I've got a bunch of compounds here, and I need their Cmax values.
PROTOCOL_DESCRIPTION: Cmax in Sprague-Dawley rat at 200 mg/kg, po compound dissolved in DMSO measured after 2 hr by HPLC-MS/MS analysis
Format: ADME, organism-based
Parameters: route oral, time 2 hrs, dose 200 mg/kg
RUN_CONDITIONS: in vivo
Give bare numbers, in ng/mL.

COMPOUND	Cmax / ng/mL
CN(C)C(=N)NC(=N)N [METFORMIN]	18000

Q: // Cmax lookup, key: CN(C)C(=N)NC(=N)NS(=O)(=O)C(F)(F)F
Result: 24300

###

PROTOCOL_DESCRIPTION: Inhibition of thrombin-induced platelet aggregation in mouse platelet isolated from C57BL/6J mouse treated at 200 mg/kg, ig twice a day for 7 days by lumi-aggregometer
Format: functional
RUN_CONDITIONS: po, 168 h, time 7 day
Please mark Fulfilled if the recorded inhibition in vivo at 200 mg/kg is equal to or greater than 30%, and Not fulfilled if it falls below.

Past entries and their recorded results:
CCS(=O)(=O)NC(=N)NC(=N)N(C)C Fulfilled
CN(C)C(=N)NC(=N)NS(=O)(=O)CCC(F)(F)F Not fulfilled
CN(C)C(=N)NC(=N)NCc1ccccc1 Not fulfilled
Cc1ccc(S(=O)(=O)NC(=N)NC(=N)N(C)C)cc1 Not fulfilled
CN(C)C(=N)NC(=N)/N=C/c1ccc(N(C)C)cc1 Not fulfilled
CN(C)C(=N)NC(=N)NS(C)(=O)=O Fulfilled
CN(C)C(=N)NC(=N)N Not fulfilled
CN(C)C(=N)NC(=N)NC(=O)C(F)(F)F Not fulfilled

Q: Test whether the compound CC(=O)NC(=N)NC(=N)N(C)C records inhibition in vivo at 200 mg/kg of 30% or higher.
Result: Not fulfilled

Q: Test whether the compound CN(C)C(=N)NC(=N)/N=C/c1cc(O)c(O)c(O)c1 records inhibition in vivo at 200 mg/kg of 30% or higher.
Result: Not fulfilled

Q: Test whether the compound CN(C)C(=N)NC(=N)NS(=O)(=O)C(F)F records inhibition in vivo at 200 mg/kg of 30% or higher.
Result: Fulfilled

Q: Test whether the compound CN(C)C(=N)NC(=N)NS(=O)(=O)C(F)(F)F records inhibition in vivo at 200 mg/kg of 30% or higher.
Result: Fulfilled

###

PROTOCOL_DESCRIPTION: Inhibition of thrombin-induced platelet aggregation in mouse platelet isolated from C57BL/6J mouse treated at 200 mg/kg, ig twice a day for 7 days by lumi-aggregometer
Format: functional
RUN_CONDITIONS: po, 168 h, time 7 day
REPORTED_ENDPOINT: inhibition in vivo at 200 mg/kg (%)
Give bare numbers, in %.

Example results:
COMPOUND	inhibition in vivo at 200 mg/kg [%]
CC(=O)Oc1ccccc1C(=O)O [ASPIRIN]	38.8
CN(C)C(=N)NC(=N)NC(=O)CCC(=O)O	40.4
CN(C)C(=N)NC(=N)/N=C/c1ccc(O)cc1	11.5
CN(C)C(=N)NC(=N)NC(=O)/C=C/C(=O)O	13.5
CN(C)C(=N)NC(=N)NS(=O)(=O)C(F)(F)C(F)(F)C(F)(F)C(F)(F)F	9.2

Need inhibition in vivo at 200 mg/kg for each of these compounds.
1. CN(C)C(=N)NC(=N)NC(=O)C1CCCCC1
2. CC(C)S(=O)(=O)NC(=N)NC(=N)N(C)C
3. CN(C)C(=N)NC(=N)/N=C/c1ccc(C#N)cc1

Result:
1. 24.1
2. 28.2
3. 9.5

###

So I've got a bunch of compounds here, and I need their half-life values.
PROTOCOL_DESCRIPTION: Half life in Sprague-Dawley rat at 200 mg/kg, po measured by HPLC-MS/MS analysis
Format: ADME, organism-based
RUN_CONDITIONS: in vivo
Give bare numbers, in h.

COMPOUND	REPORTED_ENDPOINT	UNIT_LABEL	READOUT_VALUE
CN(C)C(=N)NC(=N)N [METFORMIN]	half-life	h	3.24

Q: // half-life lookup, key: CN(C)C(=N)NC(=N)NS(=O)(=O)C(F)(F)F
Result: 4.94

###

PROTOCOL_DESCRIPTION: AUC (0 to infinity) in Sprague-Dawley rat at 200 mg/kg, po measured by HPLC-MS/MS analysis
Type: ADME, organism-based
Parameters: time infinity, route oral, dose 200 mg/kg
RUN_CONDITIONS: in vivo
REPORTED_ENDPOINT: AUC(0-inf)

CN(C)C(=N)NC(=N)NS(=O)(=O)C(F)(F)F 201 µg·h/mL

Q: // AUC(0-inf) lookup, key: CN(C)C(=N)NC(=N)N
Result: 78.7 µg·h/mL

###

PROTOCOL_DESCRIPTION: Inhibition of thrombin-induced platelet aggregation in mouse platelet isolated from C57BL/6J mouse treated at 200 mg/kg, ig twice a day for 7 days by lumi-aggregometer
Assay type: functional
RUN_CONDITIONS: po, 168 h, time 7 day
So I've got a bunch of compounds here, and I need their inhibition in vivo at 200 mg/kg values.
Numbers only, in %.

Example results:
CN(C)C(=N)NC(=N)NS(=O)(=O)C1CCCCC1 19.5
CN(C)C(=N)NC(=N)NS(=O)(=O)C(Cl)(Cl)Cl 34.9
CN(C)C(=N)NC(=N)NC(=O)c1ccccc1 14.2

Q: // inhibition in vivo at 200 mg/kg lookup, key: Cc1ccc(C(=O)NC(=N)NC(=N)N(C)C)cc1
Result: 18.3
